- Test system: synthesis of the lipoxygenase product 5-HETE in rat polymorphonuclear leukocytes
- MEASUREMENT_PROTOCOL: Inhibition of 5-HETE synthesis by rat glycogen elicited polymorphonuclear leukocytes
- Assay type: cell-based, rat (female Wistar)
- CONDITION_SET: Leukocyte, rat PMN
ENDPOINT_NAME: IC50
Answer format: value, then unit.

Enquiry: Checklist item: IC50 tested on synthesis of the lipoxygenase product 5-HETE in rat polymorphonuclear leukocytes, entry CONC(=O)Cc1cccc(OCc2ccc3ccccc3n2)c1 [Example 1] , value?
Return: 10.5 µM
